B1: CAMK2D (parent)
chain: IVRLHDSISEEGFHYLVFDLVTGG

Variants of: B1
Experiment: protein stability index of a GFP-peptide fusion (GPS, HEK-293T) (PSI 1-6); higher = more stable;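 further: lentivirally expressed fusions sorted by FACS into six bins by GFP to DsRed ratio, PSI derived from sequencing read proportions per bin multiplied by bin number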
Conditions: c terminus: a fixed tail appended
Assignment: determine reported protein stability index for the given variants.
Simply state the number, no unit and no words.

query: Give the measured protein stability index of D6P .
result: 4.25

query: Looking for the measured protein stability index of E11Y , can you help?
result: 3.26

query: Which measured protein stability index value corresponds to H14D ?
result: 1.85

query: # input variant: I1G ; wanted: its protein stability index
result: 1.94

query: Sample D19I — what was its protein stability index?
result: 2.4

query: Item T22I has what recorded protein stability index?
result: 2.22

query: Which protein stability index value belongs to T22E ?
result: 2.96

query: Item under review: V2D . Reported protein stability index?
result: 1.79

query: Fill in: protein stability index of G23A is ___
result: 3.32

query: Sample I8H — what was its protein stability index?
result: 3.29

query: Query: protein stability index; subject: S7M
result: 3.09

query: For the variant V21D , what protein stability index is on record?
result: 3.2

query: Entry Y15Q : reported protein stability index = ?
result: 1.58

query: State the recorded protein stability index for this entry: V21K
result: 1.57

query: Would you mind telling me what protein stability index value was observed for I8G ?
result: 1.64

query: I have this variant here, G12T , and I need its recorded protein stability index.
result: 3.32

query: For the variant shown here, Y15R , give the reported protein stability index.
result: 1.21

query: Please report the recorded protein stability index for L4K .
result: 3.71

query: Entry F18T : reported protein stability index = ?
result: 2.1

query: I am curious: what protein stability index value has been reported for L20S ?
result: 1.45

query: Could you tell me which protein stability index is on file for L4W ?
result: 1.57

query: Entry F18A : reported protein stability index = ?
result: 2.33

query: What does the record list as protein stability index for F18E ?
result: 2.33

query: Any idea what protein stability index was measured for T22N ?
result: 4.16

query: // protein stability index lookup, key: F13A
result: 1.76

query: Would you mind telling me what protein stability index value was observed for V17L ?
result: 1

query: Give the measured protein stability index of L16R .
result: 2.51

query: Fill in the blank: the reported protein stability index of V21Y is ____.
result: 3.1

query: Return reported protein stability index; argument: E10N
result: 4.11

query: Fill blank: measured protein stability index of the variant V17R is ____.
result: 2.13

query: Tell me the measured protein stability index of E11D , please.
result: 3.32

query: Report protein stability index for T22Y please.
result: 3.62

query: Please report the recorded protein stability index for D6A .
result: 3.03

query: Can you share its protein stability index? I mean this variant: F18Y
result: 1.43

query: Field request: protein stability index | item: H5I
result: 3.99

query: Any idea what its protein stability index is? The variant is S9P
result: 5.65

query: Endpoint output: protein stability index of I1M . Value?
result: 3.44
